EXPERIMENTAL_TARGET: T1, huCD33-R69 stably expressed on Jurkat cells (human, UniProt P20138 18-364)
T1 construct: whole, on cells; >200,000 receptors per cell; also called CD33 WT; CD33^ARG69
T1 sequence (P20138 18-364): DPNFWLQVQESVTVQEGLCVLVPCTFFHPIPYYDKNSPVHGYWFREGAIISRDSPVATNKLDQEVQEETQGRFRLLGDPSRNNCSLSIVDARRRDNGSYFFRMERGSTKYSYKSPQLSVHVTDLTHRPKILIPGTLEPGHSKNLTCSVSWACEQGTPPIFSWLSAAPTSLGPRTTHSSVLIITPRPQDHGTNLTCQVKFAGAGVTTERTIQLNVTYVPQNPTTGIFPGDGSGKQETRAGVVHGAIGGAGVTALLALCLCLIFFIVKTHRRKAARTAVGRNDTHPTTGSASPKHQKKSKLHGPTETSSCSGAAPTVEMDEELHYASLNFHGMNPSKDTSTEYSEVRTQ
EXPERIMENTAL_DETAILS: FACS on cells;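 also: fixed Jurkat lines probed with myc-tagged scFv periplasmic extracts, anti-myc PE flow cytometry, PE MFI fold binned − <2, + 2–10, ++ 10–30, +++ >30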
ENDPOINT_LABEL: FACS geometric mean fold change over Jurkat parental

BINDER	VALUE_REPORTED
Polypeptide No. 96 (scFv, V domains shown, scFv) VH: QVQLVQSGAEVKKPGASVKVSCKASGGTFSSYAISWVRQAPGQGLEWMGWMNPSSANTGYAQKFQGRVTMTRDTSTSTVYMELSSLRSEDTAVYYCAKDEMELLTAFDIWGQGTMVTVSS VL: DIQMTQSPSSLSASVGDRVTITCRASQSIGSWLAWYQQKPGKAPKLLIYGVSTLHSGVPSRFSGSGSGTDFTLTISSLQPEDFATYYCQQSYSTPPTFGQGTKLEIKR	> 30 fold
Polypeptide No. 111 (scFv, V domains shown, scFv) VH: QVQLVQSGAEVKKPGASVKVSCKASGGTFTSYGISWVRQAPGQGLEWMGWINPNTGVTNYAQDFQGRVTMTRDTSTSTVYMELSSLRSEDTAVYYCANEQGGFDYWGQGTLVTVSS VL: EIVMTQSPATLSVSPGERATLSCRASQSVAGSYLAWYQQKPGQAPRLLIYGASTRATGIPARFSGSGSGTEFTLTISSLQSEDFAVYYCQQYYSTPLTFGGGTKVEIKR	> 30 fold
